B1: Twister Ribozyme (parent)
chain: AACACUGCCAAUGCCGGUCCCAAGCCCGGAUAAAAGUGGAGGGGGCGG

- Variants of: B1
- assayText: self-cleavage, relative activity (ratio to wild type); higher = more cleavage; co-transcriptional
Measured self-cleavage by item
Response field accepts a number only; no unit should be typed.

Study these solved cases before continuing.
| sequenceEntry | valueReported |
| --- | --- |
| AACACUGCCAAUGCCGGGCCCAAGCCCGGAUAAAAGUGGAAGGGGCGG | 0.0588 |
| AACACUGCCAAUGCCUGUCCCAAGCCCGGAUAAAGGUGGAGGGGGCGG | 0.765 |
| AACACUGCCAAUGCCGGUCCCAAGCCCGGAUAAAAGUUGAGGGGGCGA | 0.854 |
| AACACUGCCCAUGCCGGUCCCAAGCCCGGAUAAAAGUGAAGGGGGCGG | 0.601 |
| AACAGUGCCCAUGCCGGUCCCAAGCCCGGAUAAAAGUGGAGGGGGCGG | 0.768 |

So, AACACUGGCAAUGCCGGUCCCAAGCCCGGAUAAAAGUGGAGGUGGCGG ? Its self-cleavage was 0.148

For AACACUGCCAAUGCCGGUCCCAAACCCGUAUAAAAGUGGAGGGGGCGG the variant record lists self-cleavage as 0.1

Entry under test: AACACUGCCAAUUCCGGUCCCAAGCCCGGAUAAAAGUGGGGGGGGCGG . Its self-cleavage was 0.152

Sample AACACUGUCAAUGCCGGUCCCACGCCCGGAUAAAAGUGGAGGGGGCGG ; self-cleavage observed: 0.0653

GET /value?item= AACACUGCCUAUGCCGGUCCCAAGCCCGGAUAAAAGUGGAGCGGGCGG &field=self-cleavage returns 0.543

AACACUGCCAAUGCCGGUCCCAAUCCCGGAUAAAAGUUGAGGGGGCGG yielded self-cleavage of 0.0819

Lab book: self-cleavage of AACACUGCCAAUGCGGGUCCCAAGCCCGGAUAUAAGUGGAGGGGGCGG noted as 0.121

According to the records, this variant AACACUGCCAAUGCCUGUCCCAAGCCCGGAUAAGAGUGGAGGGGGCGG displays self-cleavage of 0.396

Kindly note the recorded self-cleavage for AACACUGCCAAUGCCGGUCCCAAGCCCCGAUAAAACUGGAGGGGGCGG , which is 0.173

# variant AUCUCUGCCAAUGCCGGUCCCAAGCCCGGAUAAAAGUGGAGGGGGCGG ; its self-cleavage = 0.0802

Per the record, AACACUGCCAAUGCCGGUCCCAAGCCCGGAUAAAAUUGGAGGGGGUGG has self-cleavage of 0.408

Measured self-cleavage of AACACUGCCAAUGCCGGUACCAAGCCCGGGUAAAAGUGGAGGGGGCGG : 0.444
